The measurements presented in this section are drawn from paper PMC5234683.

property.name: Ki (nM)
Record the value in nM, omitting the unit from your answer.

Give Ki for COc1cc2c(cc1O)[C@@H]1Cc3ccc(O)c(OC)c3CN1CC2 [(−)-stepholidine, (−)-Stepholidine] tested on D3R (Homo sapiens, UniProt P35462).
Sequence (P35462 whole entry): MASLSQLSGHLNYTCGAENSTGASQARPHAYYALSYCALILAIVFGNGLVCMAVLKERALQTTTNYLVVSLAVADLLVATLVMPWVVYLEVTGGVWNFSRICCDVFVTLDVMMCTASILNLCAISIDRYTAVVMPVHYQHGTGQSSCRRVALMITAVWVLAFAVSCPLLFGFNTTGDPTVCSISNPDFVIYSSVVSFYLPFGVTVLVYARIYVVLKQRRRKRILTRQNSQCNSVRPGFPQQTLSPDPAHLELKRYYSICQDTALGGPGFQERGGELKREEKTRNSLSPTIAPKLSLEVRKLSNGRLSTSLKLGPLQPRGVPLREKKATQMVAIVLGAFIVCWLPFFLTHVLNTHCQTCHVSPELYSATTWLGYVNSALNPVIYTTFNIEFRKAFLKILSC
23.4

* * *

tested.system: D1-like receptors in bovine striatal membranes (Bos taurus, UniProt Q95136)
Sequence (Q95136 whole entry): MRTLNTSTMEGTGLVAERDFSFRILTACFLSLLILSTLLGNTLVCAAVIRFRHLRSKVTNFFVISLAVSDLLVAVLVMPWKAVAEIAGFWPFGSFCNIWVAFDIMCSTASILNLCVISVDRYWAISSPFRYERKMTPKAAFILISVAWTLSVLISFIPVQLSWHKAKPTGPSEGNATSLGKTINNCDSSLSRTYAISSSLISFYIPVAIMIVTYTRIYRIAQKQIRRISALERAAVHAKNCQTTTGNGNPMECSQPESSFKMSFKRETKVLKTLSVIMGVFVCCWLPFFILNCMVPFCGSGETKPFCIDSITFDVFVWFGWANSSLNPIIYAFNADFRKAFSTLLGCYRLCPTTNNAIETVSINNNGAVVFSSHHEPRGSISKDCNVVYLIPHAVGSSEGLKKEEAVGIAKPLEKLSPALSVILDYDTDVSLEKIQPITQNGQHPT
experimental.protocol: Bovine striatal radioligand binding assay, [3H]-SCH23390
experimental.setup: read-out: Ki, one-site fit; control, absence of GTPγS; 0.5 nM [3H]-SCH23390
property.name: pKi
pKi (log units): -log10 of the concentration in mol/L.

Retrieve pKi measured for COc1cc2c(cc1O)[C@@H]1Cc3ccc(O)c(OC)c3CN1CC2 [(−)-stepholidine, (−)-Stepholidine] and print it.
7.80

* * *

tested.system: D1-like receptors in bovine striatal membranes (Bos taurus, UniProt Q95136)
experimental.protocol: Bovine striatal radioligand binding assay, [3H]-SCH23390
experimental.setup: read-out: Ki, one-site fit; presence of 1 mM GTPγS; 0.5 nM [3H]-SCH23390
property.name: pKi
For clarity, pKi is expressed as the negative log10 of concentration in mol/L.

Answer with the recorded pKi of COc1cc2c(cc1O)[C@@H]1Cc3ccc(O)c(OC)c3CN1CC2 [(−)-stepholidine, (−)-Stepholidine] only.
7.72

* * *

tested.system: UniProtKB P21917
Sequence (P21917 1-419): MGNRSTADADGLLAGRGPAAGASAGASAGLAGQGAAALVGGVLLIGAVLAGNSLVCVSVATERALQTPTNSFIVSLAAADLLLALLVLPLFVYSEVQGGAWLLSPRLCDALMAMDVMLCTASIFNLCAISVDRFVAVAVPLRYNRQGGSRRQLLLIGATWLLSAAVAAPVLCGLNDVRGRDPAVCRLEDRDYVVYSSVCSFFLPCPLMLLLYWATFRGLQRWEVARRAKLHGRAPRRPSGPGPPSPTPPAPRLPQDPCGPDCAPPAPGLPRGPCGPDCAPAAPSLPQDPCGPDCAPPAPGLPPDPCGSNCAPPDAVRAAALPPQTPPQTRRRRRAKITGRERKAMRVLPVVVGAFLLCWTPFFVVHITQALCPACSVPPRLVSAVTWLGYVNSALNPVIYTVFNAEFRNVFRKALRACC
property.name: Ki (nM)
Expressed in nM, but write only the number.

Return Ki (reported value) for this compound: COc1cc2c(cc1O)[C@@H]1Cc3ccc(O)c(OC)c3CN1CC2 [(−)-stepholidine, (−)-Stepholidine]
1450

* * *

tested.system: D1R–D2R heteromer (Homo sapiens, UniProt P14416+P21728)
Sequence (P21728 whole entry): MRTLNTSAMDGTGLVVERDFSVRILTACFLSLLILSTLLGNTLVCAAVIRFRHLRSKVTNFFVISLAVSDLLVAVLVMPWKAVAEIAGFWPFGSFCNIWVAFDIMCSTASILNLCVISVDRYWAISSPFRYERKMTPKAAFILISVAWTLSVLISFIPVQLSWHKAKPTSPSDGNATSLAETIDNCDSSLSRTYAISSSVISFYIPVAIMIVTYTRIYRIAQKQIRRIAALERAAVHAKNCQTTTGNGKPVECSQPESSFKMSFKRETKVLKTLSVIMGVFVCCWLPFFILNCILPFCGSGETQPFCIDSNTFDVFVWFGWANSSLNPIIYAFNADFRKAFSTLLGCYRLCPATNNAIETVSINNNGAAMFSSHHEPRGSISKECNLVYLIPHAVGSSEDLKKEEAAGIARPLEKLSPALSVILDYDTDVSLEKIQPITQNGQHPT
Sequence (P14416 whole entry): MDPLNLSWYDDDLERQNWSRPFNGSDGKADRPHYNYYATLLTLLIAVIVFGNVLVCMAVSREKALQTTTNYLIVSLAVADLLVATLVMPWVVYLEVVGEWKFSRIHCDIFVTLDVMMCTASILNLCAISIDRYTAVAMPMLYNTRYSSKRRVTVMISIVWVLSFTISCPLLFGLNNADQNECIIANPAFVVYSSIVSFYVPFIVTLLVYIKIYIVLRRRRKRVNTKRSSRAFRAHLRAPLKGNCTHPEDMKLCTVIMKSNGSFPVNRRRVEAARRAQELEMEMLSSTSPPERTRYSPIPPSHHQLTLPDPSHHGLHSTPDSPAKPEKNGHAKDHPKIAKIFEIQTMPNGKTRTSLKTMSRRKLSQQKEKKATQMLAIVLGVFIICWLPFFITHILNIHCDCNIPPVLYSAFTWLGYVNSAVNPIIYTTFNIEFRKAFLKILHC
experimental.protocol: D1R–D2R-mediated calcium mobilization assay, co-transfected HEK293T cells
experimental.setup: read-out: IC50, inhibition of dopamine-stimulated calcium mobilization; EC80 (1 μM) dopamine; n=3
property.name: IC50 (µM)
Hi! Could you send only the number? It should be in µM, unit omitted.

Give D1R–D2R heteromer (Homo sapiens, UniProt P14416+P21728) IC50 for the following compound: COc1cc2c(cc1O)[C@@H]1Cc3ccc(O)c(OC)c3CN1CC2 [(−)-stepholidine, (−)-Stepholidine]
0.0193

* * *

property.name: pKi
Remember, pKi is on a log scale: it is -log10 of the molar concentration.

Provide pKi, system D2R (Homo sapiens), entry COc1cc2c(cc1O)[C@@H]1Cc3ccc(O)c(OC)c3CN1CC2 [(−)-stepholidine, (−)-Stepholidine]
7.94
